Molecular target: human leukocyte elastase (HLE) (Homo sapiens)
Sequence (P08246 30-247 limits assumed): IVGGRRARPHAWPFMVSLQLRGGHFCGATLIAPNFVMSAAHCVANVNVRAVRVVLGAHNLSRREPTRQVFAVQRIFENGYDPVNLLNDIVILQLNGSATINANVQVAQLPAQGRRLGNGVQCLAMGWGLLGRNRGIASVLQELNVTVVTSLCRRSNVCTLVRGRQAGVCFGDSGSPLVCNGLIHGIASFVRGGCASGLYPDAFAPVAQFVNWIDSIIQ
pIC50: −log10 of the molar value.
quantity_measured: pIC50

P: COC(=O)CCC(=O)N[C@@H](C)C(=O)N[C@@H](C)C(=O)N1CCC[C@H]1C(=O)N[C@H](c1nc2cccc(C)c2c(=O)o1)C(C)C [Example 6]
Q: Cc1cccc2nc([C@@H](NC(=O)[C@@H]3C[C@@H](O)CN3C(=O)OCc3ccccc3)C(C)C)oc(=O)c12 [Example 12]
Ask | Of P versus Q , which is the one with smaller reported pIC50? State your choice using its label.
Reply | P

The origin of these recorded values is patent US5204462A.
